Target system: Biotinylated CD33 protein (UniProt P20138)
Sequence (P20138 18-259 limits assumed): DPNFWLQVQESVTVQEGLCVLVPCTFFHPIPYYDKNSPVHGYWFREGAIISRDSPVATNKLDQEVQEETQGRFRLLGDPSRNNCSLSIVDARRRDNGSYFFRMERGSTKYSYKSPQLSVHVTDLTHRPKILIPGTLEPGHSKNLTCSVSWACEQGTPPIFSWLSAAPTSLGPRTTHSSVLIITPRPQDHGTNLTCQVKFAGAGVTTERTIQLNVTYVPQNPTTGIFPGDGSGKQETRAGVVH
Protocol details: Octet competition on biotinylated CD33; competitor 420
Readout: Octet signal

Task: Item sdCD33_9 (VHH, sdAb from a naive llama phage library; also called 426; sdAb426) VHH: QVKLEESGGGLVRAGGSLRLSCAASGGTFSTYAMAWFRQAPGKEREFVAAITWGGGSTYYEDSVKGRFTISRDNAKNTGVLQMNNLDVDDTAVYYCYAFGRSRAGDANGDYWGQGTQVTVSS has what recorded Octet signal?
Output: 0.191

Task: Item sdCD33_6 (VHH, sdAb from a naive llama phage library; also called 416; sdAb416) VHH: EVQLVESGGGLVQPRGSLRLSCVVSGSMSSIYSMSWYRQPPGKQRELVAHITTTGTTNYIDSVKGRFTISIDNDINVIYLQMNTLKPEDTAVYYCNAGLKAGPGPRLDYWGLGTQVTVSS has what recorded Octet signal?
Output: 0.34
